Tested on: HCT-116 colon
experiment: NCI-60 one-dose screen, 48 h
settings: 10 µM unless noted
The panel holds about 83,000 compounds, 20% with a hit somewhere; the sample as a whole holds those more often. The source made the active and inactive calls. Rule for the calls: active = growth percent below 10; inactive = the rest.
Outcome codes: t (active), f (inactive)

molecule	group
CCCCCCCCCCCCCCCCCC1=NC(C)(C)CN1CC(C)O (configuration not stated)	t
NS(=O)(=O)c1ccc(-c2cc(-c3nnc(SCC(=O)Nc4ccc(C(=O)/C=C/c5ccc(Cl)cc5)cc4)n3-c3ccccc3)c3ccccc3n2)cc1	t
CC(=O)Oc1ccc(OC(C)=O)c2ccccc12	f
Cc1cccc[n+]1C1c2ccccc2-c2ccccc21	f
CN1C(=O)/C(=C2\SC(=Nc3ccccc3)N(Nc3ccccc3)C2=O)c2ccccc21	f
CC(C)(C)n1cc(-c2ccnc(NCCCNS(=O)(=O)c3ccc(C(F)(F)F)cc3)c2)c(-c2cccc(F)c2)n1	f
C=C1C(=O)O[C@H]2[C@H]1CC/C(CNC(=O)c1c[nH]c3ccc(F)cc13)=C\CC[C@@]1(C)O[C@@H]21	t
CC1(C)CC[C@]2(C(=O)N[C@H](CO)Cc3ccccc3)CC[C@]3(C)C(=CC[C@@H]4[C@@]5(C)CCCNC(C)(C)[C@@H]5CC[C@]43C)[C@@H]2C1	f
CC1(C)CC(=O)c2c(nn(-c3ccc(Br)cc3)c2-c2cn(-c3ccccc3)nc2-c2cccnc2)C1	f
N#C/C(=C\c1cn(Cc2ccccc2)c2ccccc12)C(=O)Nc1ncc(Cc2ccccc2Cl)s1	t
Cn1ccc(=O)nc1	f
O=C(/C=C/c1ccc(Cl)cc1)c1cccc(OCCCOc2cccc(C(=O)/C=C/c3ccc(Cl)cc3)c2)c1	f
CN1CCN(CC(=O)Nc2ccc3ncnc(Nc4ccc(Oc5cccc(C(F)(F)F)c5)c(Cl)c4)c3c2)CC1	t
COc1ccc2nc(Cl)c(/C=C3\CC(c4ccccc4)=NN(c4ccccc4)C3=O)cc2c1	f
Cc1ccc(-c2nc(-c3cn(C)c4ncccc34)cs2)cc1	t
CNC(=O)c1ccccc1Nc1nc(Nc2cc(OC)c(OC)c(OC)c2)ncc1Br	t
COc1ccc(/C=C/C(=O)c2cc3c(N)c(C(=O)Nc4cccc(Cl)c4C)sc3nc2C)cc1	t
CN1CCN(Cc2ccc(NC(=O)c3cncc(C#Cc4cnc(N)c5ncccc45)c3)cc2C(F)(F)F)CC1	t
CNC1=C([N+](=O)[O-])C(c2ccc(OC)cc2)C(C#N)=C(c2cccs2)O1 (configuration not stated)	f
COc1cccc(NCc2nnc(Nc3ccc(Cl)cc3)c3ccccc23)c1	t
C[C@@H]1O[C@@H](O[C@@H]2C[C@H](c3ccc4c(c3O)C(=O)C3=C(C4=O)[C@@]4(O)C(=O)C[C@](C)(O)C[C@@]4(O)C=C3)O[C@H](C)[C@H]2O)CC[C@@H]1O[C@H]1C[C@@H](O)[C@H](O)[C@@H](C)O1	f
COc1ccc(C2=CC(c3cc(OC)c(OC)c(OC)c3)n3ncnc3N2)cc1 (configuration not stated)	t
Nc1ncnc2c1N=C(c1ccc3c(c1)OCO3)CC(c1cccc(Nc3ccnc4cc(C(F)(F)F)ccc34)c1)N2 (configuration not stated)	f
Cc1[nH]c(C2CC(c3ccc(C(F)(F)F)c(F)c3)=NN2c2ccccc2)c(C)c1C(=O)NCC(F)(F)F (configuration not stated)	f
O=C(O)COc1ccc(Cl)c(Cl)c1	f
CCNc1nc(O)c(/C=C2\C=Nc3ncccc32)s1	t
NS(=O)(=O)c1ccc(NC(=O)/C(=C\c2ccc(Cl)cc2Cl)NC(=O)c2ccccc2)cc1	f
Cc1nc2c(=O)nc3s/c(=C\c4ccco4)c(=O)n3c2nc1C	f
Cc1ccc(N2C(=O)CCC2=O)cc1	f
Cc1ccc(CNc2c3ccccc3nc3ccccc23)cc1	f
S=C(c1ccc2c(c1)OCO2)N1CCN(c2cccc(Cl)c2)CC1	f
COc1ccc(C#Cc2ccc(=O)oc2-c2cc(OC)c(OC)c(OC)c2)cc1O	f
C=C1CC[C@@H]2[C@](C)(COC(C)=O)[C@H](OC(C)=O)CC[C@@]2(C)[C@@H]1CC(Nc1ccc(S(=O)(=O)NC(C)=O)cc1)C1=CCOC1=O (some centres not stated)	t
COc1cccc(-c2cc(-c3cccc(Cl)c3)c(C#N)c(=O)[nH]2)c1	f
O=C(C1=Cc2cc3ccccc3n2Cc2cnnn21)c1ccc(O)cc1	f
Nn1c(=O)c(=O)[nH]c2c(cnn2-c2ccccc2)c1=O	f
CCN1CCN(c2cc(C)nc(N(CCNc3ccnc4cc(Cl)ccc34)Cc3ccc4c(c3)OCO4)n2)CC1	t
